Biological target: T1, TNFR1 (Homo sapiens, UniProt P19438)
T1 chain: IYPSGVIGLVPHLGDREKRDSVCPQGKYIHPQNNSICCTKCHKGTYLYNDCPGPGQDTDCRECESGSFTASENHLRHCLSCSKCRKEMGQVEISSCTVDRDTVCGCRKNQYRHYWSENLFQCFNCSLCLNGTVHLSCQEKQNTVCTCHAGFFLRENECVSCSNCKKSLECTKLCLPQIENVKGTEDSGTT
Experiment: yeast display SC50
Measure: apparent Kd (screen) (nM)

In the examples that follow, each entry is paired with its recorded apparent Kd (screen).
Binder	apparent Kd (screen) / nM
A83S (designed binder) MTLQELLREEALRRAEAEAFRYALELLAEKFPEQKEYLLDLAEEIESQIRSLSGVDVEDVRKFLDKEWAWVKELLAEHPAELSEVEAARAARLAELRAEVEAKVAA	0.539
K62M (designed binder) MTLQELLREEALRRAEAEAFRYALELLAEKFPEQKEYLLDLAEEIESQIRSLSGVDVEDVRMFLDKEWAWVKELLAEHPAELAEVEAARAARLAELRAEVEAKVAA	0.718

1: A15W (designed binder) MTLQELLREEALRRWEAEAFRYALELLAEKFPEQKEYLLDLAEEIESQIRSLSGVDVEDVRKFLDKEWAWVKELLAEHPAELAEVEAARAARLAELRAEVEAKVAA
2: W68Q (designed binder) MTLQELLREEALRRAEAEAFRYALELLAEKFPEQKEYLLDLAEEIESQIRSLSGVDVEDVRKFLDKEQAWVKELLAEHPAELAEVEAARAARLAELRAEVEAKVAA
Determine, for 1 and 2 , which has the greater value of apparent Kd (screen). Write down the label of the entry you select.
2
(2: 5.31 nM, 1: 0.593 nM)
